# Read-out: Lipase C (LIPC), LIPC (gene 3990)
# experiment_summary: LTEA_HepaRG_LIPC: Life Technologies and Expression Analysis (LTEA) Assay for Lipase C (LIPC) using HepaRG (AID 2283514)
# setup_conditions: mRNA level, 48 h; actives raise or lower the signal
Calls of active or inactive are those of the source. The calls were made as follows: active = hit-call score of the fitted dose curve at least 0.9, where 1 is the maximum; inactive = score below 0.9.
Possible outcomes: t for active, f for inactive

> print(dat)
                                   compound  class.label
1  C#C[C@]1(O)CC[C@H]2[C@@H]3CCC4=CC(=O)CC[C@@H]4[C@H]3CC[C@@]21CC            f
2         O=C(O)C1(C(=O)Nc2ccc(Cl)cc2Cl)CC1            t
3      Oc1ccc(C(c2ccc(O)cc2)C(Cl)(Cl)Cl)cc1            t
4  CCCCOC(=O)C(C)Oc1ccc(Oc2ccc(C(F)(F)F)cn2)cc1 (configuration not stated)            f
5  CCOC(=O)COc1cc(-n2ncc(C(F)(F)F)c(C)c2=O)c(F)cc1Cl            f
6               CN(C)C(=O)Nc1ccc(Cl)c(Cl)c1            f
7                   CCN(CC)C(=O)c1cccc(C)c1            f
